# experimental_details: Area under curve (AUC) was determined after intravenous administration in rat at a dose of 5 mg/kg
# Type: ADME, organism-based
# Parameters: dose 5 mg/kg, route intravenous
# condition_parameters: in vivo
result_type: AUC (ng·h/mL)
Express it in ng·h/mL; write the number only.

q: Which AUC is reported for this molecule? C[C@@H](O[C@H]1OCCN(Cc2n[nH]c(=O)[nH]2)[C@H]1c1ccc(F)cc1)c1cc(C(F)(F)F)cc(C(F)(F)F)c1 [APREPITANT]
a: 6400

###

# experimental_details: Area under curve (AUC) was determined after intravenous administration in dog at a dose of 0.5 mg/kg
# Format: ADME, organism-based, Canis lupus familiaris
# Design: dose 0.5 mg/kg, route intravenous
# condition_parameters: in vivo
result_type: AUC (ng·h/mL)
Express it in ng·h/mL; write the number only.

q: Which AUC is reported for this compound? C[C@@H](O[C@H]1OCCN(Cc2n[nH]c(=O)[nH]2)[C@H]1c1ccc(F)cc1)c1cc(C(F)(F)F)cc(C(F)(F)F)c1 [APREPITANT]
a: 3800

Recorded values, source ChEMBL document CHEMBL1132987.
